Molecular target: T1, human C1s (human, UniProt P09871 16-688)
T1 construct: also called hC1s; serum-derived human C1s (CompTech)
T1 sequence: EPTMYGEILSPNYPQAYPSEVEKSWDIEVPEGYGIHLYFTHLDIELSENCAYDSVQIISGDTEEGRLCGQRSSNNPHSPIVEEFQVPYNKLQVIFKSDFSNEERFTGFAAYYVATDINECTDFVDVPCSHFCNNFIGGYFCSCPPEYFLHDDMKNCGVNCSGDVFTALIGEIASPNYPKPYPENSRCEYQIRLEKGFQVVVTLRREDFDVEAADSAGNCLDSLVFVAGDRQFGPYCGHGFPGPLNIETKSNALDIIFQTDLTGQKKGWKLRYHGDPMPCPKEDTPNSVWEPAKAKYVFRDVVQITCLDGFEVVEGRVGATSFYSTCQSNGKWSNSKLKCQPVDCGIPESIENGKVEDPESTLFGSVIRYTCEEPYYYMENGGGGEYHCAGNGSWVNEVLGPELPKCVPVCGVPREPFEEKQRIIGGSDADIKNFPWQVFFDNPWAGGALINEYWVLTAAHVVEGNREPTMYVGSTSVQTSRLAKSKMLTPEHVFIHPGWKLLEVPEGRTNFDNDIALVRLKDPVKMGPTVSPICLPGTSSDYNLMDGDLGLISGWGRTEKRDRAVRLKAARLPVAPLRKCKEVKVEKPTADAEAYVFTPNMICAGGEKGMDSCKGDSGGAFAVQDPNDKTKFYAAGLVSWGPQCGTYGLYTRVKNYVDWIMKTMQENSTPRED
Assay: SPR, Ab captured; pH 5.8, 1.2 mM Ca
parameter: kon (M⁻¹ s⁻¹)
Give the value, in units of M⁻¹ s⁻¹, as a plain number.

C1_IPN92H0048-SG4GK/IPN93L0024-SK1 (antibody, human IgG4 S228P, kappa, name in Kabat numbering, V domains shown, also called IPN92H0048/IPN93L0024) VH: EVMLVESGGGLVKPGGSLRLSCAASGHTFSNYAMSWVRQAPGKGLEWVATISSGGSHTYYLDSVKGRFTISRDNSKDTLYLQMNSLRAEDTALYYCARLFTGHAMDYWGQGTLVTVSS VL: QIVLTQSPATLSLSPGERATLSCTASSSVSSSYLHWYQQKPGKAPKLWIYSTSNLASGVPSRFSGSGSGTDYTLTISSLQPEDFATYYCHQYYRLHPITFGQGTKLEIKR
528000
C1_IPN92H0033-SG4GK/IPN93L0021-SK1 (antibody, human IgG4 S228P, kappa, name in Kabat numbering, V domains shown, also called IPN92H0033/IPN93L0021) VH: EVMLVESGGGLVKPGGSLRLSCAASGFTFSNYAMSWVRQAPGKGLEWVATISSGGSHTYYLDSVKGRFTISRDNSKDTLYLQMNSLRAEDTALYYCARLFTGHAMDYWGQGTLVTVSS VL: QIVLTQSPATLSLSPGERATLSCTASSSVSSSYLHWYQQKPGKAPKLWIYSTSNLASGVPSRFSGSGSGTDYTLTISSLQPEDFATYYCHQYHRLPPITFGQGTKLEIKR
585000

Proceeding to the next binder to report its kon.
Query: kon; subject: C1_IPN009VH2-SG4GK/IPN93L0031-SK1 (antibody, human IgG4 S228P, kappa, name in Kabat numbering, V domains shown, also called IPN009VH2/IPN93L0031) VH: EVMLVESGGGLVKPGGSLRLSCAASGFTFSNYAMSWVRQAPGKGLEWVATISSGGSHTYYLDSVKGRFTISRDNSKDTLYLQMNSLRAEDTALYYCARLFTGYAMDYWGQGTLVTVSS VL: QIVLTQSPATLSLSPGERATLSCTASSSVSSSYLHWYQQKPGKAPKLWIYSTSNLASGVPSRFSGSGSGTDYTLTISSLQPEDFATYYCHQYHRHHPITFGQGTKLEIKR
532000

These measurements were taken from patent US20210032365A1.
